assay: Serum levels in mice after oral administration; format: in vivo; conditions: mouse, 5 mg/kg, 1 hour, read-out: Serum level
experimentalReadout: concentration at 1 h (ng/mL)
// units = ng/mL; emit number, no label

# compound, valueUnits, obsValue
rows = [
    ("CNn1cc(C(=O)O)c(=O)c2cc(F)c(N3CCN(C)CC3)cc21 [II, reference compound]", "ng/mL", 320),
]

Here's the next entry for you.
Given item CNn1cc(C(=O)O)c(=O)c2cc(F)c(N3CCN(C)CC3)c(F)c21 , the value recorded as its concentration at 1 h is 600

----------
Measured concentration at 1 h accompanies every entry in the list below.
experiment: Serum levels in mice following subcutaneous administration; assay type: in vivo; settings: mouse, sc, 5 mg/kg, 1 hour, read-out: Serum level
Value expressed in ng/mL; do not type the unit.

# compound, valueUnits, concentration at 1 h
measured = [
    ("CNn1cc(C(=O)O)c(=O)c2cc(F)c(N3CCN(C)CC3)cc21 [II, reference compound]", "ng/mL", 450),
]

Now let's try a different one.
CNn1cc(C(=O)O)c(=O)c2cc(F)c(N3CCN(C)CC3)c(F)c21 has a reported concentration at 1 h of 920

----------
experiment: Serum levels in mice following subcutaneous administration; assay type: in vivo; conditions: mouse, sc, 5 mg/kg, 15', read-out: Serum level
experimentalReadout: concentration at 0.25 h (ng/mL)
# unit: ng/mL | format: bare number

# compound, concentration at 0.25 h (ng/mL)
measured = [
    ("CNn1cc(C(=O)O)c(=O)c2cc(F)c(N3CCN(C)CC3)cc21 [II, reference compound]", 840),
]

Moving on to another compound below.
Lab note: CNn1cc(C(=O)O)c(=O)c2cc(F)c(N3CCN(C)CC3)c(F)c21 gave concentration at 0.25 h of 1200

----------
Item-by-item account of concentration at 2 h
assay: Serum levels in mice after oral administration; format: in vivo; conditions: mouse, 5 mg/kg, 2 hours, read-out: Serum level
Quick note: give the figure in ng/mL, leave out the unit.

# compound, concentration at 2 h [ng/mL]
measured = [
    ("CNn1cc(C(=O)O)c(=O)c2cc(F)c(N3CCN(C)CC3)cc21 [II, reference compound]", 100),
]

--- query ---
Measured concentration at 2 h of CNn1cc(C(=O)O)c(=O)c2cc(F)c(N3CCN(C)CC3)c(F)c21 [Example 3] : 250

----------
test: Serum levels in mice after oral administration; type: in vivo; conditions: mouse, 5 mg/kg, 30', read-out: Serum level
experimentalReadout: concentration at 0.5 h (ng/mL)
Give the value in ng/mL but do not write ng/mL after it.

# compound, experimentalReadout, valueUnits, obsValue
rows = [
    ("CNn1cc(C(=O)O)c(=O)c2cc(F)c(N3CCN(C)CC3)c(F)c21", "concentration at 0.5 h", "ng/mL", 1200),
]

Continue with the next compound.
Lab book: concentration at 0.5 h of CNn1cc(C(=O)O)c(=O)c2cc(F)c(N3CCN(C)CC3)cc21 [II, reference compound] noted as 580
